Hey, just so you know, these numbers are from patent US20070043084A1.

Field: melting point. Provide a value for each of the compounds that follow.

Challenge: I am curious: what melting point value has been reported for "COc1ccc(-c2nc(C(F)F)cn2-c2ccc(C#N)cc2)cn1" ?
Response given: 160 to 161 °C

Challenge: What do you have for "COc1ccc(-c2nc(C(F)F)cn2-c2ccc(C#N)cc2)cc1" ?
Response given: 131 to 132 °C

Challenge: What do you have for "COc1ccc(-c2nc(C(F)(F)F)cn2-c2ccc(C#N)cc2)cc1" ?
Response given: 146 to 148 °C

Challenge: What do you have for "CCC(=O)c1cn(-c2ccc(OCc3ccccc3)cc2)c(-c2ccc(OC)nc2)n1" ?
Response given: 126 to 128 °C

Challenge: What do you have for "COc1ccc(-c2nc(C(F)(F)F)cn2-c2ccc(C#N)cc2)cn1" ?
Response given: 155 to 158 °C

Challenge: What do you have for "COc1ccc(-c2nc(C(N)=O)cn2-c2ccc(OC)cc2)cc1" ?
Response given: 167 to 169 °C

Challenge: What do you have for "COc1ccc(-c2nc(C(F)F)cn2-c2ccc(O)cc2)cc1" ?
Response given: 143 to 145 °C

Challenge: What do you have for "COc1ccc(-c2nc(C(=O)O)cn2-c2ccc(OC)cc2)cc1" ?
Response given: 102 to 105 °C

Challenge: What do you have for "COc1ccc(-c2nc(C#N)cn2-c2ccc(OC)cc2)cc1.Cl" ?
Response given: 142 to 143 °C
